TARGET_SYSTEM: T1, recombinant human RANTES (huRANTES, Peprotech) (human, UniProt P13501 24-91)
T1 sequence: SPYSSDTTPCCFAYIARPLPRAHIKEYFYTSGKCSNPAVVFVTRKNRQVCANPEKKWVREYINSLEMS
EXPERIMENT_DESCRIPTION: cell-based or functional assay
PARAMETER_MEASURED: Chemotaxis IC50 (nM), 1 nM huRANTES; L1.2-hCCR5 cells; IgG1 format
Quick note: give the figure in nM, leave out the unit.

For the binder shown here, A5 antibody, IgG1 format (antibody, V domains shown) VH: QVQLVQSGAEVKKPGASVKVSCKVSGYALSELSIHWVRQAPGKGLEWMSYIDPEDGEPIYAQKFQGRATMTEDSSTDTAYMEMGSLTSDDTAVYYCAGVTGSTSDAFDLWGRGTLVTVSS VL: SYVLTQDPSVSVAPGQTARITCGGANLWGLGVHWYQQKSGQAPVLVVSDNSDRASGIPERFSGSNSGTTATLTLSRVEVGDEADYYCQVWDSSSDHWVFGGRTKLTVL , give the reported Chemotaxis IC50 (nM), 1 nM huRANTES; L1.2-hCCR5 cells; IgG1 format.
13.2
